# Compound, melting point
rows = [
    ("NC(=O)c1ccc2ccn(C3CCN(CCc4ccc(F)cc4)CC3)c2c1", "238 to 240 °C"),
    ("CSc1nc(C)ccc1NC(=O)CCCCCCCCSc1nc2ccccc2[nH]1", "73 to 75 °C"),
    ("Cc1ccc(S(=O)(=O)Oc2ccc(S(=O)(=O)C3=C(C(C)C)OCC3)cc2)cc1", "103 °C"),
    ("CS(=O)(=O)NC(=O)C1(CCCCCCCCCCCCC2(C(=O)NS(C)(=O)=O)CC2)CC1", "148 °C"),
    ("COc1cccc(CN2Cc3cc(OC)c(O)cc3CC2C)c1 (stereo unspecified)", "100 to 105 °C"),
    ("NC1=Nc2ccc(I)cc2C(c2ccccn2)=NC1", "228 to 229 °C"),
    ("Nc1nc2ccccc2c2c1nc1n2C(COc2ccccc2)COC1 (stereo unspecified)", "189 to 195 °C"),
    ("CCCCCCCCOc1ccc(-c2ncc(OC(=O)[C@@H](Cl)[C@@H](C)CC)cn2)c(F)c1F", "66.2 °C"),
    ("CC1(C(=O)NCc2cccs2)CC1", "70 to 71 °C"),
    ("O=c1[nH]c2ccccc2cc1CC1CCc2ccccc2N1 (stereo unspecified)", "196 to 199 °C"),
    ("Cc1ccc(S(=O)(=O)OCCn2c([N+](=O)[O-])cnc2C=CN(C)C)cc1", "116 to 118 °C"),
    ("CCC(C)(N=NC(C)(CC)NC(=O)Nc1ccccc1)NC(=O)Nc1ccccc1 (stereo unspecified)", "118 to 120 °C"),
    ("CSc1nc(-c2cc(NC(=O)c3ccc(C)c(F)c3)ccc2C)c2c(n1)N(c1c(F)cccc1F)C(=O)NC2", "167 to 173 °C"),
    ("O=C(CCN1CCN(c2ccccc2)CC1)c1ccc2oc3ccc(C(=O)CCN4CCN(c5ccccc5)CC4)cc3c(=O)c2c1", "199 to 201 °C"),
    ("O=C(Nc1cc2nc(-c3ccc(C(=O)C4CCCCC4)cc3)[nH]c2cn1)C1CCCCC1", "235 °C"),
    ("c1cnc(N2CCN(Cc3ccc4c(c3)Cc3c(-c5ccsc5)n[nH]c3-4)CC2)nc1", "245 to 247 °C"),
    ("COc1c(C2CCN(CCCCNC(=O)c3ccc(-c4ccc(Cl)cc4)c(OCC(N)=O)c3)CC2)ccc2c1CCCC2", "198 °C"),
    ("CCC(CC)Oc1cc(C)nc2c1nc(C)c(=O)n2-c1c(C)cc(C)cc1C", "215 to 217 °C"),
    ("Cc1c(Cc2cccc(C(F)(F)F)c2)sc2c(-c3cccc(C(=O)NCCO)c3)cccc12", "140 to 145 °C"),
    ("Nc1c(-c2ccc(Cl)cc2Cl)nnn1Cc1ccc(O)cc1", "172 to 174 °C"),
    ("COC(=O)CCNC(=O)c1ccc2c(c1)nc(-c1ccc(C#N)cc1)n2CCC(c1ccccc1)c1ccccc1", "157 to 159 °C"),
]
